measured_on: KvLQT1/minK (Homo sapiens, UniProt P15382+P51787)
experimental_protocol: Ion channel assay, KvLQT1/minK
pIC50: −log10 of the molar value. Where a name gives a salt, the structure may show the parent alone.

molecule	pIC50
CNC(C)C(=O)c1c[nH]c2ccc(F)cc12 (stereo not drawn) [BK-5F-NM-AMT, hydrochloride]	< 5.00
CNC(C)C(=O)c1c[nH]c2ccc(Br)cc12 (stereo not drawn) [BK-5Br-NM-AMT, hydrochloride]	< 5.00
CNC(C)C(=O)c1c[nH]c2ccc(Cl)cc12 (stereo not drawn) [BK-5Cl-NM-AMT, hydrochloride]	< 5.00

====

measured_on: Endothelin Receptor Type A (EDNRA) (Homo sapiens, UniProt P25101)
Sequence (P25101 21-427): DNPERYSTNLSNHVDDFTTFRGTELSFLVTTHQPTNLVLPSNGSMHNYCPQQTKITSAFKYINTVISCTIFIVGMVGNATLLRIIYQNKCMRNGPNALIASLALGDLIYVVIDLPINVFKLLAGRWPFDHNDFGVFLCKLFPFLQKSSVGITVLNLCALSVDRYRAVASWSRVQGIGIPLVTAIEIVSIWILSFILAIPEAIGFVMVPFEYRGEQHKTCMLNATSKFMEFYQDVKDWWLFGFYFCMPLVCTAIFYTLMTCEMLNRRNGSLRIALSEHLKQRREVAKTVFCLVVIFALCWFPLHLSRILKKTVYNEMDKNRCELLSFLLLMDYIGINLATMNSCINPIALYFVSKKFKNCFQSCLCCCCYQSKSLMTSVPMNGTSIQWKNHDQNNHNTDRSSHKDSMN
experimental_protocol: Calcium flux assay, EDNRA
pEC50: −log10 of the molar value. Where a name gives a salt, the structure may show the parent alone.

compound	measured_on	pEC50
CNC(C)C(=O)c1c[nH]c2ccc(Br)cc12 (stereo not drawn) [BK-5Br-NM-AMT, hydrochloride]	Endothelin Receptor Type A (EDNRA) (Homo sapiens, UniProt P25101)	< 5.00
CNC(C)C(=O)c1c[nH]c2ccc(Cl)cc12 (stereo not drawn) [BK-5Cl-NM-AMT, hydrochloride]	Endothelin Receptor Type A (EDNRA) (Homo sapiens, UniProt P25101)	< 5.00
CNC(C)C(=O)c1c[nH]c2ccc(F)cc12 (stereo not drawn) [BK-5F-NM-AMT, hydrochloride]	Endothelin Receptor Type A (EDNRA) (Homo sapiens, UniProt P25101)	< 5.00
